# Test system: SK-OV-3
# Test details: NCI tumour cell line growth inhibition, 48 h
Active and inactive are the calls of the source. No stated cut-off is given here; in the data, active = GI50 up to about 1.1 µM and inactive = higher.
Choose one outcome from this list and give only that: active, inactive

>  <Molecule>
CN(C)C(=S)N/N=C\C=N/NC(=S)N(C)C

>  <Target system>
SK-OV-3

>  <Discrete label>
active

$$$$

Input line: Please state the recorded outcome for this molecule: CCCS(=O)(=O)/C(=C(\c1ccc(Br)cc1)S(=O)(=O)CCC)c1ccc(Br)cc1
Output line: inactive

Input line: Please state the recorded outcome for this molecule: CC1(C)C=C(/C=N/Nc2ccccc2)C(C#N)=C(O)C1(C#N)C#N
Output line: inactive

Input line: Please state the recorded outcome for this molecule: O=C(/C=C/c1ccc([N+](=O)[O-])cc1)N1CCN(CCOC(c2ccc(F)cc2)c2ccc(F)cc2)CC1
Output line: inactive

Input line: Please state the recorded outcome for this molecule: COc1cc(C2c3cc4c(cc3[C@@H](Nc3ccc5c(c3)OCCO5)C3COC(=O)[C@H]23)OCO4)cc(OC)c1O (stereo not given in full)
Output line: inactive

* * *

# Test system: NCI-H226
# Test details: NCI tumour cell line growth inhibition, 48 h
Activity calls are given as the source filed them. Cut-off read from the data, not from the text of the source: active = GI50 up to about 1.1 µM and inactive = higher.
For each entry below, report its GI50 value.

Field: example entries. Status: answers known.
>  <Compound>
Cc1ccc(NC(=O)/C(Cc2nc3ccc([N+](=O)[O-])cc3nc2O)=N\NC(=O)C[n+]2ccccc2)c(C)c1

>  <GI50>
74.6 µM (inactive)

$$$$
>  <Compound>
O=C(Nc1ccc(Cl)cc1Cl)C1C(=O)C(=O)N(c2ccc(Cl)cc2Cl)C1=O (centres undefined)

>  <GI50>
34.1 µM (inactive)

$$$$
>  <Compound>
CC(=O)OC1COC(n2nc(N)nc2C)C(OC(C)=O)C1OC(C)=O (centres undefined)

>  <GI50>
> 100 µM (inactive)

$$$$
>  <Compound>
C[C@@H]1C[C@@H]2OC(=O)[C@]3(C)[C@H]2[C@@H](OC3(C)O)[C@]2(C)C(=O)C=C[C@@H]12 (some centres undefined)

>  <GI50>
74 µM (inactive)

$$$$
>  <Compound>
C[N+]1(C)C/C(=C\c2ccccc2)C(=O)/C(=C/c2ccccc2)C1

>  <GI50>
> 100 µM (inactive)

$$$$

Please supply GI50 for each of the following items, keeping them in order.
1. CC(Cl)(/C=C/Cl)C(Cl)/C=C/C(Cl)(CCl)CBr (centres undefined)
2. O=C1OC2CCCC[C@@H]2C2C[C@]34CCCCC3[C@@H](C(=O)O4)C12 (some centres undefined)
3. Cc1cccc2c1NC(=S)[C@@H]1CCCN1C2=O
4. OCC(O)C(O)C(C=NNc1ncnc2ccc(Br)cc12)=NNc1ncnc2ccc(Br)cc12 (centres undefined)

Output line:
1. 10.2 µM (inactive)
2. > 100 µM (inactive)
3. > 100 µM (inactive)
4. 2.12 µM (inactive)

* * *

# System: HOP-62
# Test details: NCI tumour cell line growth inhibition, 48 h
Activity calls are given as the source filed them. Cut-off read from the data, not from the text of the source: active = GI50 up to about 1.1 µM and inactive = higher.
Quantity kind: GI50

Field: example entries. Status: answers known.
>  <Molecule>
O=C(CCN1CCN(c2cccc(Cl)c2)CC1)N1CCc2c([nH]c3ccccc23)C1c1cccnc1 (stereo unspecified)

>  <Target system>
HOP-62

>  <GI50>
9.1 µM (inactive)

$$$$
>  <Molecule>
O=[N+]([O-])c1nccn1CC(O)CN1CC1 (stereo unspecified)

>  <Target system>
HOP-62

>  <GI50>
74.3 µM (inactive)

$$$$

Please supply GI50 for each of the following items, keeping them in order.
1. CC(C)[C@@H]1NC(=O)[C@@H]2N=C(O[C@H]2C)[C@H](C(C)C)NC(=O)C2N=C1O[C@H]2C
2. O=CC(I)=C(c1ccccc1)c1ccccc1
3. N#C/C(=C1\SC(/N=N/c2ccccc2)C(=O)N1c1ccccc1)c1nc2ccccc2[nH]1 (stereo unspecified)
4. N=C(N)SCCc1cn2ccccc2n1
5. CCOc1cc(/C=N/c2ccc(Oc3ccc(Cl)cc3)c(Cl)c2)ccc1O
6. COC(=O)C1(C(C)C)CCc2c(OC)ccc(OC)c2C1=O (stereo unspecified)
7. COc1ccccc1-c1cc(O)c2ccc(C)nc2n1

Output line:
1: > 100 µM (inactive); 2: 18.1 µM (inactive); 3: 23.4 µM (inactive); 4: > 100 µM (inactive); 5: 23.1 µM (inactive); 6: > 100 µM (inactive); 7: > 100 µM (inactive)

Please supply GI50 for each of the following items, keeping them in order.
1. CC1(C)C2CCC3CC(CCC#N)CCC3C21C#N (stereo unspecified)
2. CC(=O)OC1COC(n2nc(N)nc2C)C(OC(C)=O)C1OC(C)=O (stereo unspecified)

Output line:
1. > 100 µM (inactive)
2. > 100 µM (inactive)
